System: Musca domestica
TEST: Housefly bait/contact test
Assay type: in vivo
Set-up: key: ‘X’ means highly active; ‘+’ means moderately active; ‘−’ means low activity
ASSAY_SETUP: 50 ppm in sugar water bait solution, adult houseflies, mortality after 24 hours
QUANTITY_MEASURED: Activity on house flies by contact

Observe how each entry below is paired with its result.
[[record]]
compound = "CC1(c2nn(-c3c(Cl)cc(C(F)(F)F)cc3Cl)c(N)c2S(C)(=O)=O)SCC[S+]1[O-] (stereo not shown)"
tgt = "Musca domestica"
quantity_measured = "Activity on house flies by contact"
measured_value = "X"

[[record]]
compound = "CSc1c(C2(C)SCCS2)nn(-c2c(Cl)cc(C(F)(F)F)cc2Cl)c1N"
tgt = "Musca domestica"
quantity_measured = "Activity on house flies by contact"
measured_value = "X"

[[record]]
compound = "C[S+]([O-])CC1COC(C)(c2nn(-c3c(Cl)cc(C(F)(F)F)cc3Cl)c(N)c2[S+](C)[O-])O1 (stereo not shown)"
tgt = "Musca domestica"
quantity_measured = "Activity on house flies by contact"
measured_value = "X"

[[record]]
compound = "CC1(c2nn(-c3c(Cl)cc(C(F)(F)F)cc3Cl)c(N)c2S(C)(=O)=O)S(=O)(=O)CCS1(=O)=O"
tgt = "Musca domestica"
quantity_measured = "Activity on house flies by contact"
measured_value = "−"

[[record]]
compound = "CSCC1COC(C)(c2nn(-c3c(Cl)cc(C(F)(F)F)cc3Cl)c(N)c2S(C)(=O)=O)O1 (stereo not shown)"
tgt = "Musca domestica"
quantity_measured = "Activity on house flies by contact"
measured_value = "−"


INPUT: Supply measured Activity on house flies by contact of C[S+]([O-])c1c(C2(C)OCC(CO)O2)nn(-c2c(Cl)cc(C(F)(F)F)cc2Cl)c1N (stereo not shown) in your reply.
OUTPUT: X

INPUT: Supply measured Activity on house flies by contact of "COC(C)(OC)c1nn(-c2c(Cl)cc(C(F)(F)F)cc2Cl)c(N)c1SC" in your reply.
OUTPUT: X

meta.source: patent US6395760B1
